// provenance: paper PMC4336329

target: human ether-à-go-go-related gene (hERG) potassium channel (human); test: primary screen, population patch clamp on CHO cells stably expressing hERG; higher = less effect of the substance
In all, about 310,000 compounds went through this assay and about 14,000 (4.5%) showed an effect of 50% or more. Effects have a minus sign here. The list comes from a sample in which strong results are over-represented; it also holds close analogues and randomly drawn compounds.
measurement-kind: hERG current change (%, negative = inhibition) at 10uM (%)
Write the number in % without appending the unit.

Take a look at these entries with their results.
| compound | result-unit | reading |
| --- | --- | --- |
| c1ccc(CNc2ncnc3sc4c(c23)CCCC4)nc1 | % | -27.4 |
| O/N=C/c1ccnc(SCc2ccccc2)n1 | % | -12.1 |
| O=C1Nc2ccccc2C1(O)c1ccccc1O (stereo not drawn) | % | 34.6 |
| Oc1c(Br)cc(C2N=C(c3ccccc3Cl)NO2)cc1Br (stereo not drawn) | % | -2.5 |
| Cc1nc(NCc2cccnc2)c2c3c(sc2n1)CC(C)CC3 (stereo not drawn) | % | -25.1 |

Now consider a different compound.
response.value for CNc1ccc(Oc2c(F)c(F)nc(F)c2F)cc1 (field: hERG current change (%, negative = inhibition) at 10uM) = -0.34

---

target: human ether-à-go-go-related gene (hERG) potassium channel (human); assay: primary screen, population patch clamp on CHO cells stably expressing hERG; higher = less effect of the substance;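 note: peak tail current of the secondary pulse compared with the same well before compound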
In all, about 310,000 compounds went through this assay and about 14,000 (4.5%) showed an effect of 50% or more. Effects have a minus sign here. Shown is part of a subset that was picked to be rich in strong results.
// not fulfilled strictly below -30% in hERG current change (%, negative = inhibition) at 10uM; fulfilled otherwise

| compound | classification |
| --- | --- |
| Fc1ccc(Nc2nnns2)cc1 | fulfilled |
| CCOC(=O)C1(CCOc2ccccc2)CCN(CC(O)CO)CC1 (stereo not drawn) | fulfilled |
| CCOC(=O)C1(CCOc2ccccc2)CCN(CC=C(C)C)CC1 | not fulfilled |

Enquiry: Hi, just wondering whether O=C(COC(=O)c1cc([N+](=O)[O-])ccc1N1CCOCC1)Nc1ccc(Cl)cc1 shows hERG current change (%, negative = inhibition) at 10uM of -30% or higher.
Return: fulfilled

Enquiry: Hi, just wondering whether CCOc1ccc(NC(=O)COC(=O)c2cc([N+](=O)[O-])ccc2N2CCOCC2)cc1 shows hERG current change (%, negative = inhibition) at 10uM of -30% or higher.
Return: not fulfilled

Enquiry: Hi, just wondering whether CN(C)CCN1C(=O)c2oc3ccc(F)cc3c(=O)c2C1c1ccncc1 (stereo not drawn) shows hERG current change (%, negative = inhibition) at 10uM of -30% or higher.
Return: fulfilled

Enquiry: Hi, just wondering whether COc1cc(C2C(C#N)=C(N)Oc3cc(O)ccc32)cc(OC)c1OC (stereo not drawn) shows hERG current change (%, negative = inhibition) at 10uM of -30% or higher.
Return: fulfilled

Enquiry: Hi, just wondering whether CC1CN(S(=O)(=O)c2ccc(C(=O)N3CCc4ccccc43)cc2)CC(C)O1 (stereo not drawn) shows hERG current change (%, negative = inhibition) at 10uM of -30% or higher.
Return: fulfilled

Enquiry: Hi, just wondering whether Cc1ccc(NC(=O)CS(=O)CC(=O)N(C2CCCC2)C(C)C(=O)NC2CCCCC2)cc1 (stereo not drawn) shows hERG current change (%, negative = inhibition) at 10uM of -30% or higher.
Return: fulfilled

Enquiry: Hi, just wondering whether CCCCn1c(SCn2nnc3ccccc3c2=O)nc2cc(S(N)(=O)=O)ccc21 shows hERG current change (%, negative = inhibition) at 10uM of -30% or higher.
Return: not fulfilled

Enquiry: Hi, just wondering whether Cc1cc(C)n2nc3nc(N4CCCC4)nc(-c4ccccc4)c3c2n1 shows hERG current change (%, negative = inhibition) at 10uM of -30% or higher.
Return: fulfilled

Enquiry: Hi, just wondering whether N#CC1(NC(=O)COC(=O)c2cc([N+](=O)[O-])ccc2N2CCOCC2)CCCCC1 shows hERG current change (%, negative = inhibition) at 10uM of -30% or higher.
Return: not fulfilled

Enquiry: Hi, just wondering whether CCCN1CCC(CCOc2ccccc2)(C(=O)OCC)CC1 shows hERG current change (%, negative = inhibition) at 10uM of -30% or higher.
Return: not fulfilled

---

target: human ether-à-go-go-related gene (hERG) potassium channel (human, UniProt Q12809); assay: primary screen, population patch clamp on CHO cells stably expressing hERG; higher = less effect of the substance;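 note: peak tail current of the secondary pulse compared with the same well before compound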
Sequence (Q12809 whole entry, looked up): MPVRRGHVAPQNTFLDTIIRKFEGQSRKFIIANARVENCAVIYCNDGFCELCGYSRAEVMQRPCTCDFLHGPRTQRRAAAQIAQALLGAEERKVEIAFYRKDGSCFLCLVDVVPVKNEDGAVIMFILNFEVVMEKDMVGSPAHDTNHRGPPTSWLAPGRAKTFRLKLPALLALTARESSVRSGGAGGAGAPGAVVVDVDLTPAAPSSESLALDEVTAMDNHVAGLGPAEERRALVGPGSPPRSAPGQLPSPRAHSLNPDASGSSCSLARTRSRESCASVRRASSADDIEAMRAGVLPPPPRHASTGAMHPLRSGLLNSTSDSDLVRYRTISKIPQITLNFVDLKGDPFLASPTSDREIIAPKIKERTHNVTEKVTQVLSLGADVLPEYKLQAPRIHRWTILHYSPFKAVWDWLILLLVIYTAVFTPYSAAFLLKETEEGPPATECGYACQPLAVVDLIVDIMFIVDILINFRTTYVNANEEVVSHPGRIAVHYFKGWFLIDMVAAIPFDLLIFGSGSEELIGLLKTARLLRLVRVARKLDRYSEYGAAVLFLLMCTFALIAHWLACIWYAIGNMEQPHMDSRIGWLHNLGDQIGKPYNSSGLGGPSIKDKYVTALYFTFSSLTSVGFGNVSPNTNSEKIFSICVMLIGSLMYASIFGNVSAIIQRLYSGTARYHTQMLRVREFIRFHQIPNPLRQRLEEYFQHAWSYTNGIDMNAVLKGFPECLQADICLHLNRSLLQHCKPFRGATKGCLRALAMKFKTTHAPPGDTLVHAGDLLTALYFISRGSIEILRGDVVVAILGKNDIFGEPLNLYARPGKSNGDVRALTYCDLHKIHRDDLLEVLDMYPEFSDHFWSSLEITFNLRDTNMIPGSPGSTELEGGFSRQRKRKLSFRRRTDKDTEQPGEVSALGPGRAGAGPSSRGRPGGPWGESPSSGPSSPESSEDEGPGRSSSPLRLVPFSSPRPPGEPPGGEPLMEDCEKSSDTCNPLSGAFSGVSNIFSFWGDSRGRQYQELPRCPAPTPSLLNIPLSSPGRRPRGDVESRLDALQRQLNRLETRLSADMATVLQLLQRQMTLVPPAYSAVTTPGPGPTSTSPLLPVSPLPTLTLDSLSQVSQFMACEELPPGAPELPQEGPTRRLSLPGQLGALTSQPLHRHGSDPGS
The whole screen tested about 310,000 compounds, of which about 14,000 (4.5%) showed an effect of 50% or more. Effects have a minus sign here. The sample as a whole holds a higher share of strong results than the screen did.
In this section we review reported hERG current change (%, negative = inhibition) at 10uM values for a set of compounds.
Write the number in % without appending the unit.

Take a look at these entries with their results.
| compound | reading |
| --- | --- |
| Cc1nc(CCNC(=O)c2cc(COc3ccc(F)cc3Cl)on2)sc1C | -22.4 |
| CSc1cccc(CN2CCN(CCc3ccccc3)C(CCO)C2)c1 (stereo not shown) | -80.4 |
| OCCSc1nc2ccccc2n1CCOc1ccccc1 | 4.02 |
| COc1ccc2c(c1)[nH]c1c(=O)n(CCCn3ccnc3)cnc12 | -35.1 |
| CC(C)N1CCc2c(sc(NC(=O)CCS(=O)(=O)c3ccccc3)c2C#N)C1.Cl | -9.63 |

response.value for O=C(NCCC1=CCCCC1)c1ccc(F)cc1 (field: hERG current change (%, negative = inhibition) at 10uM) = -9.04

response.value for O=c1c2[nH]c3ccccc3c2ncn1CCCn1ccnc1 (field: hERG current change (%, negative = inhibition) at 10uM) = -41.8

response.value for Cl.Oc1cccc(C(O)CNCc2ccc(-c3ccccc3)cc2)c1 (stereo not shown) (field: hERG current change (%, negative = inhibition) at 10uM) = -66

response.value for CSc1ncc(CN2CCN(C3CCCCC3)C(CCO)C2)cn1 (stereo not shown) (field: hERG current change (%, negative = inhibition) at 10uM) = -16.9

response.value for CC(NCc1ccccc1Cl)C(O)c1ccccc1.Cl (stereo not shown) (field: hERG current change (%, negative = inhibition) at 10uM) = 4.31

---

biological target: human ether-à-go-go-related gene (hERG) potassium channel (human, UniProt Q12809); experiment: primary screen, population patch clamp on CHO cells stably expressing hERG; higher = less effect of the substance;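 note: peak tail current of the secondary pulse compared with the same well before compound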
The campaign covered roughly 310,000 compounds. About 14,000 (4.5%) showed an effect of 50% or more. The effect is printed as a negative number. The sample holds strong results, similar compounds and a random draw of the others, so the mix is not that of the screen.
measurement-kind: hERG current change (%, negative = inhibition) at 10uM (%)
Write the number in % without appending the unit.

| compound | reading |
| --- | --- |
| CC(C)Cn1c(N)c(C(=O)CSc2nc3ncc(Cl)cc3[nH]2)c(=O)n(C)c1=O | -0.019 |

response.value for CCC1(C)Cc2ccccc2-c2c1c(=O)n(-c1ccc(C)cc1)c1nnnn21 (centres unmarked) (field: hERG current change (%, negative = inhibition) at 10uM) = 2.8

response.value for O=C(NCc1ccccc1)C1c2ccccc2Oc2ccccc21 (field: hERG current change (%, negative = inhibition) at 10uM) = 7.83

response.value for O=C(/C=C/c1ccccc1Cl)NCc1ccccc1 (field: hERG current change (%, negative = inhibition) at 10uM) = 10.2

response.value for CC(=O)Nc1ccc(NC(=O)c2ccc(N(C)S(=O)(=O)c3ccc(C)cc3)cc2)cc1 (field: hERG current change (%, negative = inhibition) at 10uM) = 6.8

---

target: human ether-à-go-go-related gene (hERG) potassium channel (human, UniProt Q12809); assay: primary screen, population patch clamp on CHO cells stably expressing hERG; higher = less effect of the substance;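 note: peak tail current of the secondary pulse compared with the same well before compound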
In all, about 310,000 compounds went through this assay and about 14,000 (4.5%) showed an effect of 50% or more. The effect is printed as a negative number. The list comes from a sample in which strong results are over-represented; it also holds close analogues and randomly drawn compounds.
// n strictly below 10% in hERG current change (%, negative = inhibition) at 10uM; y otherwise

As a guide, the following entries are already answered.
| compound | classification |
| --- | --- |
| CCOC(=O)c1[nH]ncc1CN1CCC(Cc2ccccc2)(C(=O)OCC)CC1 | n |
| CCN(CC)S(=O)(=O)c1ccc(C)c(NC(=S)NNC(=O)C2CC2)c1 | y |
| Cc1ccc(S(=O)(=O)N(C)C)cc1NC(=O)C(C)OC(=O)C1CCCC1 (stereo not drawn) | n |
| O=C(CSc1nc2ccccc2c(=O)n1CC1CCCO1)NCCc1ccccc1 (stereo not drawn) | n |
| CCOC(=O)C1(Cc2ccc(OC)cc2)CCN(C(=O)c2cccc3nccnc23)CC1 | n |

Enquiry: Hi, just wondering whether Cc1[nH]c2ccccc2c1C1(O)C(=O)N(C(C)C)c2ccccc21 (stereo not drawn) shows hERG current change (%, negative = inhibition) at 10uM of 10% or higher.
Return: y

Enquiry: Hi, just wondering whether Cc1ccc(S(=O)(=O)N(C)C)cc1NC(=O)c1ccncc1 shows hERG current change (%, negative = inhibition) at 10uM of 10% or higher.
Return: n

Enquiry: Hi, just wondering whether Cc1onc(COc2ccccc2O)c1Br shows hERG current change (%, negative = inhibition) at 10uM of 10% or higher.
Return: y
